- Tested Target: GlcA(b1-6)Gal
- Assay Procedure: glycan array binding signal (z-score within array); higher = stronger binding
- Particulars: glycan notation: IUPAC condensed, linker removed
Only a selection was taken, and the strongest signals are over-represented in it overall.
Please go through the items and note down their glycan array binding signal (z-score).
Give only the figure.

Consider XTP3-B-MRH1 (Homo sapiens), Q96DZ1 (protein) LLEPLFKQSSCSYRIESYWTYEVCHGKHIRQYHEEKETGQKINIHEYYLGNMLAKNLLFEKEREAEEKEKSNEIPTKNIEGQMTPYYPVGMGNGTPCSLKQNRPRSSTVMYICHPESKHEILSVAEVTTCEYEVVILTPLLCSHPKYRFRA . Its measured glycan array binding signal (z-score) is 0.841

Summary for this binder, MRCL (Homo sapiens), NP_872425.1 (protein) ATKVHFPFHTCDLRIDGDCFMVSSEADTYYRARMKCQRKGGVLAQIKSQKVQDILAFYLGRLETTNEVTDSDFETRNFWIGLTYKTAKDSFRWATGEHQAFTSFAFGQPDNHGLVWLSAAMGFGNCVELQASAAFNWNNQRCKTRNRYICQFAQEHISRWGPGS : glycan array binding signal (z-score) is 0.237

Measured glycan array binding signal (z-score), TbCVNHOb (Tuber borchii) (protein) GSHIGPYMSFYASSEDVRTIEEGGRTWLVGRARRADGSWQDIKLDLDNIIGNRDGHLTWGEQNFTQSASDIRFNFEGGSNVPVLRAKLRNAAGGEQESDLNLGERLTNNNGDLVFN : -0.483

Form: binder = Clec18A (Homo sapiens) (protein) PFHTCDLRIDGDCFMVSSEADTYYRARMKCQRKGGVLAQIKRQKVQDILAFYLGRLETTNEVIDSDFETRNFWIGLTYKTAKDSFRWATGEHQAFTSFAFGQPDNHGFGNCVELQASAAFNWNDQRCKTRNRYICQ ; glycan array binding signal (z-score) = 8.1

Entry AICL (Homo sapiens), Q92478 (protein) MMTKHKKCFIIVGVLITTNIITLIVKLTRDSQSLCPYDWIGFQNKCYYFSKEEGDWNSSKYNCSTQHADLTIIDNIEEMNFLRRYKCSSDHWIGLKMAKNRTGQWVDGATFTKSFGMRGSEGCAYLSDDGAATARCYTERKWICRKRIH , glycan array binding signal (z-score) reported as 4.6
